readoutType: melting point (°C)

[A] Cc1nn2c(C(F)(F)F)cc(-c3cccc(C(F)(F)F)c3)nc2c1C#N
[B] Cc1cc(OS(=O)(=O)c2c(F)cccc2F)cc2c(C3CCN(C)CC3)cn(C)c12
Field: lower recorded melting point (choose A or B ) Return value: the label identifying the chosen record.
B
(B: 139 °C, A: 215 °C)

----------
Recorded measurements of melting point, one per entry

CCOC(=O)C1(n2cc(Br)cc2C(=O)C(Cl)(Cl)Cl)CC(=O)NC1=O (centres undefined) = 196 to 198 °C
COc1ccccc1N1CCN(CCCCOc2ccc(-c3cn4cccnc4n3)cc2)CC1 = 151 to 153 °C
Cc1cc(C)c(S(=O)(=O)NC(COc2ccnc3ccccc23)C(F)(F)F)c(C)c1 (centres undefined) = 211 to 212 °C
CC1=C(C(=O)CS(=O)(=O)NC(C)C)[C@@H](c2cccc([N+](=O)[O-])c2)C(C(=O)O[C@@H](C)c2ccccc2)=C(C)N1 = 128 to 131 °C
Cc1cnc2sc(S(=O)(=O)c3ccccc3)nn2c1=O = 198 to 200 °C

Any idea what its melting point is? The compound is "O=C(O)C(=O)c1ccc(OCC#Cc2ccccc2)cc1"
97 to 99 °C

----------
Recorded measurements of melting point, one per entry

CCN(CC)C(=O)n1cnc(S(=O)(=O)Cc2ccccc2)n1 = 87 to 88 °C
CN(C)C=C1N=C(c2ccccc2Cl)c2cc(I)ccc2N(C)C1=O = 182 to 184 °C

# input for lookup
Any idea what its melting point is? The molecule is "CC1(C)CCC(C)(C)c2cc(-c3cc(-c4ccc(C(=O)O)cc4)ccc3C(=O)O)ccc21"
343 °C

----------
readoutType: melting point (°C)

[a] Cc1ccc(-c2nc3ccccc3[nH]2)cn1
[b] CN1CCC(C2c3ccccc3CCn3ncnc32)CC1 (stereo not given)
Field: lower recorded melting point (choose a or b ) Return value: the label identifying the chosen record.
b
(b: 134 °C, a: 266 °C)

----------
readoutType: melting point

A selection of reference data follows.
COc1ccc(S(=O)(=O)N(CCN2CCC(C(=O)c3ccc(F)cc3)CC2)c2cccc(OC)c2)cc1 = 129 to 132 °C
O=C(N[C@H]1CC[C@@H](O)C1)OCc1ccccc1 (relative stereo) = 62 to 63 °C
Nc1cccc2ccc(C(=O)O)cc12 = 221 to 223 °C
COc1ccc(C2C3=C(COC3=O)Nc3onc(-c4ccc(Cl)cc4)c32)cc1O (stereo not given) = 245 to 246 °C

# input for lookup
Any idea what its melting point is? The compound is "OCC1(CO)COC2(CCCCC2)N1"
117 to 119 °C

----------
Recorded measurements of melting point, one per entry

A selection of reference data follows.
O=C1NCC(Cc2ccccc2Oc2ccccc2)O1 (centres undefined) = 100 to 101 °C
COc1ccc(CN(C)CC=CCc2ccc(NC(=O)c3cccc4c(=O)c5ccccc5[nH]c34)cc2)cc1OC = 140 °C
COc1ccc(C(=O)Cc2c(Cl)cncc2Cl)c2c1OC(C)(C)O2 = 133 to 134 °C
CCOC(=O)N[C@@H]1CCc2c(ccc(OCc3ccccc3)c2C(=O)OC)[C@H]1O (relative stereo) = 147 to 148 °C

Any idea what its melting point is? The compound is "Cc1ccc(-c2ccc3c(c2)C=C(C(=O)Nc2ccc(CN4CCN(C)CC4)cc2)CC3)cc1"
174 to 175 °C

Same question for "CCN(C(=O)c1cc(Cl)c(NC(=O)C(F)(F)F)cc1OC)C1CCN(Cc2ccccc2)CC1" please.
198 to 200 °C
